The following compounds have recorded IC50 on VEGFR3 (Homo sapiens, UniProt P35916).
Sequence (P35916 25-1363): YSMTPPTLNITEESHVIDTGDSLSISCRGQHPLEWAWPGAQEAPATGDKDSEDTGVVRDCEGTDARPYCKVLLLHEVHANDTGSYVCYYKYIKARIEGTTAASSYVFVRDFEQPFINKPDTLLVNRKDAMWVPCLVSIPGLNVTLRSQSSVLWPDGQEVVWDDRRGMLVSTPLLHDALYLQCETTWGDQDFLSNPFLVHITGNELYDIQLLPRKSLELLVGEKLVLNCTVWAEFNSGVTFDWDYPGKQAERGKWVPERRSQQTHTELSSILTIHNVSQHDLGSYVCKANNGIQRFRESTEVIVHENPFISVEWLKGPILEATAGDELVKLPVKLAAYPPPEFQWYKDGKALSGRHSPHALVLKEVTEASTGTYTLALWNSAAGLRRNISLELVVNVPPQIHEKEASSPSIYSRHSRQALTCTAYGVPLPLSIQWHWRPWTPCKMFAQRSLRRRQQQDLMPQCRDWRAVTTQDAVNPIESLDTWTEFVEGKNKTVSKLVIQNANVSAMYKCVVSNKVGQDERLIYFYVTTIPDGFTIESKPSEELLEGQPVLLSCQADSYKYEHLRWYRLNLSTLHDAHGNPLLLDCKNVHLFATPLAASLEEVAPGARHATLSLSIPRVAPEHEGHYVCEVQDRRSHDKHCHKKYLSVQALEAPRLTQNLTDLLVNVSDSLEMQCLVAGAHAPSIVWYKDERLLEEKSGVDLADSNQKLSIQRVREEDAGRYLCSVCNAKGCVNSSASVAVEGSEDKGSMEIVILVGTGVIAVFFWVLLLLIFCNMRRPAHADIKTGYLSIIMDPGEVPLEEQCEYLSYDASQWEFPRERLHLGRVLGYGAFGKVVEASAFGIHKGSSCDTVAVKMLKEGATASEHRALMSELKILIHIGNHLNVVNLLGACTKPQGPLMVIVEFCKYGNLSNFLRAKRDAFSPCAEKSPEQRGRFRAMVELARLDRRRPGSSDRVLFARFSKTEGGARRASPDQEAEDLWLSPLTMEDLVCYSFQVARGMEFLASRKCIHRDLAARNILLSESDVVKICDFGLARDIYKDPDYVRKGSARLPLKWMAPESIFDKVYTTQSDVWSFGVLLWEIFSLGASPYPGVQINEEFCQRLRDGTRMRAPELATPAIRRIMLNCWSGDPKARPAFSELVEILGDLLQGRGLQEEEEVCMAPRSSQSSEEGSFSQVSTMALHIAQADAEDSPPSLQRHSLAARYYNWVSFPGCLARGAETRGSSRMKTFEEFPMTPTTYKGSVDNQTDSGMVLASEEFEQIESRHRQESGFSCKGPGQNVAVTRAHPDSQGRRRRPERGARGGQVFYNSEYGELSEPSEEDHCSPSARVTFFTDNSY

Worked cases, answers included:
1) FC(F)(F)Oc1ccccc1C#Cc1ccnc2[nH]ccc12 | > 1 µM
2) C(#Cc1cnc2[nH]ccc2c1)c1ccccc1 | > 1 µM
3) CS(=O)(=O)c1ccc(C#Cc2ccnc3[nH]ccc23)cc1 | > 1 µM
4) O=C(NCc1ccccc1C#Cc1ccnc2[nH]ccc12)C(F)(F)F | 0.1 to 1 µM

Value sought: IC50, system VEGFR3 (Homo sapiens, UniProt P35916), item CN(C)c1ccc(C#Cc2ncnc3sc4c(c23)CCCC4)cc1 . Result: > 1 µM

GET /values?item= Cc1ccncc1C#Cc1ccnc2[nH]ccc12 &system= VEGFR3 (Homo sapiens, UniProt P35916) returns IC50: 0.1 to 1 µM
